# credit: ChEMBL document CHEMBL2177033

measurement target: UniProt:Q9UBL9
Sequence (whole entry): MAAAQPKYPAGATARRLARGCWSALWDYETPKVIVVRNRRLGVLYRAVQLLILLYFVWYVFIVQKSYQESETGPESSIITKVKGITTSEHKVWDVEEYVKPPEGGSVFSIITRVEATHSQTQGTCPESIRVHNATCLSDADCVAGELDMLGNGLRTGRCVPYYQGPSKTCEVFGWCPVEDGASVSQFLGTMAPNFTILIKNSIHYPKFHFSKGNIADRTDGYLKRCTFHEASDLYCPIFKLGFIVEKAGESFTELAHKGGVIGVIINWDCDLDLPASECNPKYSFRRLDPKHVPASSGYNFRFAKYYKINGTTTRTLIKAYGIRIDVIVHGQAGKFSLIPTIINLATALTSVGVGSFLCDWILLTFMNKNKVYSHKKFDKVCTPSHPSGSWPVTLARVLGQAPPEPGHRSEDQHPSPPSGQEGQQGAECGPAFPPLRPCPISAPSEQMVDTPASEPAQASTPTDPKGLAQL
test description: Antagonist activity at human P2X2 receptor at 10 uM by cell-based calcium influx assay
Type: functional
Design: scale not given: the % may be the effect or the level left
endpoint name: Activity (%)

The following compounds have reported results that may help.
[
  {
    "smiles structure": "OC1(c2ccccc2)c2ccccc2N(Cc2ccccc2)c2ccccc21",
    "unit annotation": "%",
    "Activity": 46
  },
  {
    "smiles structure": "O=C(OCc1ccccc1)N1c2ccccc2Oc2ccccc21",
    "unit annotation": "%",
    "Activity": 13
  },
  {
    "smiles structure": "Cc1ccc(S(=O)(=O)N2c3ccccc3Oc3ccccc32)cc1",
    "unit annotation": "%",
    "Activity": -5
  },
  {
    "smiles structure": "O=C(NCCc1ccccc1)N1c2ccccc2Oc2ccccc21",
    "unit annotation": "%",
    "Activity": 27
  }
]

1. CCCN(CCC)C(=O)N1c2ccccc2Oc2ccccc21
2. Cc1ccc(COC(=O)N2c3ccccc3Oc3ccccc32)cc1
Input line: Hey, which is lower on measured Activity, 1 or 2 ? Returns: label corresponding to the selected item.
Output line: 2

###

measurement target: P2X purinoceptor 3 (Homo sapiens) (UniProt P56373)
Sequence (P56373 whole entry): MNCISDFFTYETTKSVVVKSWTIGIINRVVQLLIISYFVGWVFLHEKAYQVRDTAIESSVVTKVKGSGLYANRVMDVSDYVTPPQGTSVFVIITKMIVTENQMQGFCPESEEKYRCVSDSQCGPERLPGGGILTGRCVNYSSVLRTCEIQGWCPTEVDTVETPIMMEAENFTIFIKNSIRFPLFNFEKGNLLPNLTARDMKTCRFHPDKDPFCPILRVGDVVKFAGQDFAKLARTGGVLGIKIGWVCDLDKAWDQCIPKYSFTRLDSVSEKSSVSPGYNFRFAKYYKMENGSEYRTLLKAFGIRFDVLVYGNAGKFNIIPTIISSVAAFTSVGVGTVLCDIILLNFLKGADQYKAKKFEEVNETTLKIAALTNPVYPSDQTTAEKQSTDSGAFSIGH
test description: Antagonist activity at human P2X3 receptor at 10 uM by cell-based calcium influx assay
Assay type: functional
Parameters: scale not given: the % may be the effect or the level left
endpoint name: Activity (%)

[
  {
    "smiles structure": "Cc1ccc(S(=O)(=O)N2c3ccccc3Oc3ccccc32)cc1",
    "endpoint name": "Activity",
    "unit annotation": "%",
    "readout value": 32
  },
  {
    "smiles structure": "O=C(OCc1ccccc1)N1c2ccccc2Oc2ccccc21",
    "endpoint name": "Activity",
    "unit annotation": "%",
    "readout value": 49
  }
]

a. CCCN(CCC)C(=O)N1c2ccccc2Oc2ccccc21
b. O=C(NCCc1ccccc1)N1c2ccccc2Oc2ccccc21
c. Cc1ccc(COC(=O)N2c3ccccc3Oc3ccccc32)cc1
Input line: Could you please sort these 3 entries by Activity from high to low? List labels; respect the requested ordering.
Output line: a, c, b

###

measurement target: UniProtKB Q99572
Sequence (whole entry): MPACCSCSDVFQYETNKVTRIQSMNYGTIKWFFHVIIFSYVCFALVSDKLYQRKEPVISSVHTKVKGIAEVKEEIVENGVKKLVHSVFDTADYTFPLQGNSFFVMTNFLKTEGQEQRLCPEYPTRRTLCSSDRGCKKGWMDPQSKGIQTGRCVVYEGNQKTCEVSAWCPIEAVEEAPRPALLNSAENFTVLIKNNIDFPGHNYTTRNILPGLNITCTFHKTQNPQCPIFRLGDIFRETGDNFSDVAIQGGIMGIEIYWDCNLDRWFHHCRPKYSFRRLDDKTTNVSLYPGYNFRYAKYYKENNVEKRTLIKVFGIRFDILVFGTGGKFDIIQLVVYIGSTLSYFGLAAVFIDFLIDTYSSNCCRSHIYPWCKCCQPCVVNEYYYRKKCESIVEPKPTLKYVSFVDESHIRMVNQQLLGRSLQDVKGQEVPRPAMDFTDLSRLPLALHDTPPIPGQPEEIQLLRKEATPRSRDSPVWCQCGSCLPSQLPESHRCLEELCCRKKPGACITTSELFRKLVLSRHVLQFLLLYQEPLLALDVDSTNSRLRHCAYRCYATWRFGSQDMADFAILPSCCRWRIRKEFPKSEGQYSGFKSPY
test description: Antagonist activity at human P2X7 receptor at 10 uM by cell-based calcium influx assay
Type: functional
Parameters: scale not given: the % may be the effect or the level left
endpoint name: Activity (%)

[
  {
    "smiles structure": "Cc1ccc(S(=O)(=O)N2c3ccccc3Oc3ccccc32)cc1",
    "Activity (%)": 6
  }
]

P. CCCN(CCC)C(=O)N1c2ccccc2Oc2ccccc21
Q. O=C(NCCc1ccccc1)N1c2ccccc2Oc2ccccc21
R. O=C(OCc1ccccc1)N1c2ccccc2Oc2ccccc21
S. Cc1ccc(COC(=O)N2c3ccccc3Oc3ccccc32)cc1
Input line: Could you please sort these 4 entries by Activity from high to low? List labels; respect the requested ordering.
Output line: S, Q, R, P
